- Test system: NCI-H522 lung
- Method: NCI tumour cell line growth inhibition, 48 h; in the data active means GI50 below about 0.43 µM; inactive means the rest
In this exercise, the only acceptable responses are true = active, false = inactive

Recorded call for C[C@]12CC[C@H]3[C@@H](CCC4=CC(=O)CC[C@@H]43)[C@@H]1CC[C@@H]2OC(=O)CCc1ccccc1 ?
false

Field: outcome | Entry: c1ccc2c(c1)c(NCCCCN1CCCCC1)cc1c3ccccc3c(NCCCCN3CCCCC3)cc21
false

Write down the call the test reported for this molecule. Item: N/C(=N\N=C\c1ccc(-c2ccccc2)cc1)N[N+](=O)[O-]
false

Which result was noted for this molecule in the test: N=C(N)c1ccc(N2CCCN(c3ccc(C(=N)N)cc3)CC2)cc1
false

// outcome(item) with item = Nc1ncnc2[nH]ncc12
false

Outcome logged for C=CC(=O)N1CCN(c2ccc3cccc(NC(=O)c4cnc(C)cn4)c3n2)CC1 in this assay:
false

Give the logged outcome of this assay for the following molecule: COc1cc2c(cc1OCCCCOc1cc3c(cc1OC)C(=O)N1CCC[C@H]1CN3)N=C[C@@H]1CCCN1C2=O
true

What was the test verdict on Cc1ccc(-c2cc(-c3ccc(C)cc3)nc(NCCNc3ccnc4cc(Cl)ccc34)n2)cc1 ?
false

Record lookup: outcome of this test for O=C1C(=O)c2c(nc3ccc(Cl)cn23)-c2ccccc21 ?
false

For this molecule, state the assay outcome: O=C(c1ccccc1)C(CN1CCOCC1)c1ccccc1 (stereo not given)
true

* * *

- Tested on: HL-60(TB) leukemia
- Method: NCI tumour cell line growth inhibition, 48 h; in the data active = GI50 below about 0.43 µM; inactive = the rest
Outcome (select one): T for active, F for inactive

How was Cc1ccc(-c2cc(-c3ccc(C)cc3)nc(NCCNc3ccnc4cc(Cl)ccc34)n2)cc1 classified in this test?
F

Dear colleague, could you share the recorded outcome for c1ccc2c(c1)c(NCCCCN1CCCCC1)cc1c3ccccc3c(NCCCCN3CCCCC3)cc21 when you have a moment?
F

Recorded test outcome, item COc1cc2nc(N3CCCC3)nc(NCC3CCCCC3)c2cc1OC
F

What is the recorded call for this molecule in the test? COC1CC(OS(=O)(=O)c2ccc(C)cc2)C(OC(=O)c2ccccc2)C(C)O1 (centres undefined)
F

Recorded test outcome, item CC1=C(CCC(C)N(C)Cc2ccc(OCCCN3CCCC3)cc2)C(C)(C)CCC1 (centres undefined)
F

Hi, do you know how COc1cccc(C=Nc2cc(C)ccn2)c1O.COc1cccc(C=Nc2cc(C)ccn2)c1O.[Cu] came out in this test?
F

I would be grateful if you could indicate the recorded call for Nc1ncnc2[nH]ncc12 .
T

What call does the record list for COC(=O)Cn1c2c(c3c(O)cccc31)C(=O)c1ccccc1-2 ?
F

Dear all, I need the recorded test outcome for Cc1c2cc[n+](CCN3CCCCC3)cc2c(C)c2c1[nH]c1ccc(O)cc12 , thank you.
F

* * *

- System: HS 578T breast
- Method: NCI tumour cell line growth inhibition, 48 h
I'd be grateful if you could share measured TGI for these entries.
The reply should contain only the number, in µM.

Query for HS 578T breast: what TGI does the record show for CN(C)CCNc1nc(-c2ccc3ccccc3c2)nc2nc[nH]c12 ?
22.8

So what TGI did CN(C)c1ccc(N=Nc2ccc3nc[nH]c3c2)cc1 get with HS 578T breast?
74.2

Give the reported TGI for CCCCCCCCCCCCCCCCCC(=O)OCC(COC1OC(COP(=O)(O)O)C(O)C(O)C1O)OC(=O)CCCCCCCCCCCCCCCCC (stereo not given) (system: HS 578T breast).
17.4

Write down the reported TGI of O=[N+]([O-])/C=C1\COCc2cc3c(cc21)OCO3 , test system: HS 578T breast.
80.7

Query TGI on HS 578T breast for CN(C(=O)Cc1cc(Cl)c(Cl)cc1N=C=S)[C@H]1CCCC[C@@H]1N1CCCC1
42.4

Tell me reported TGI for COc1ccc(NC2Oc3cc4c(cc3C(c3cccc(OC)c3OC)C2C)OCO4)cc1 (stereo not given) , tested with HS 578T breast.
61.5
